The following molecules are listed with their measured pIC50 values.
tested on: Hepatocyte; experiment: Hepatoprotective activity against D-GaIN/TNFalpha-induced cell death in mouse hepatocyte at 100 uM relative to control; type: functional, cell-based; conditions: Mus musculus, Hepatocyte
pIC50: −log10 of the molar value.

[
  {
    "structure smiles": "CC1=C2C3=CC[C@@H]4[C@@]5(C)C[C@@H](O)[C@H](O)[C@@](C)(CO)[C@@H]5CC[C@@]4(C)[C@]3(C)CC[C@@]2(C(=O)O)CC[C@H]1C",
    "pIC50": 4.29
  },
  {
    "structure smiles": "COc1cc([C@H]2Oc3cc([C@H]4Oc5cc(O)cc(O)c5C(=O)[C@@H]4O)ccc3O[C@@H]2CO)ccc1O",
    "pIC50": 4.52
  }
]

---

The following molecules are listed with their measured Activity values.
system: Hepatocyte; assay: Hepatoprotective activity against D-GaIN/LPS induced liver injury in rat hepatocytes assessed as cell death at 10 to 500 uM relative to control; format: functional; conditions: dose 10-500 µM

[
  {
    "molecule": "C[C@@H]1O[C@@H](O[C@H]2[C@H](O[C@H]3[C@H](O[C@H]4CC[C@@]5(C)[C@@H](CC[C@]6(C)[C@@H]5CC=C5[C@@H]7CC(C)(C)CC(=O)[C@]7(C)CC[C@]56C)[C@@]4(C)CO)O[C@H](C(=O)O)[C@@H](O)[C@@H]3O)O[C@H](CO)[C@H](O)[C@@H]2O)[C@H](O)[C@H](O)[C@H]1O",
    "Activity": "0%"
  },
  {
    "molecule": "C[C@@H]1O[C@@H](O[C@H]2[C@H](O[C@H]3[C@H](O[C@H]4CC[C@@]5(C)[C@@H](CC[C@]6(C)[C@@H]5CC=C5[C@@H]7CC(C)(C)C[C@@H](O)[C@]7(C)CC[C@]56C)[C@@]4(C)CO)O[C@H](C(=O)O)[C@@H](O)[C@@H]3O)O[C@H](CO)[C@H](O)[C@@H]2O)[C@H](O)[C@H](O)[C@H]1O [SOYASAPONIN I]",
    "Activity": "0%"
  },
  {
    "molecule": "C[C@@H]1O[C@@H](O[C@H]2[C@H](O[C@H]3[C@H](O[C@H]4CC[C@@]5(C)[C@@H](CC[C@]6(C)[C@@H]5CC=C5[C@@H]7CC(C)(C)[C@H](O[C@@H]8O[C@H](CO)[C@@H](O)[C@H](O)[C@H]8O)C[C@]7(C)CC[C@]56C)[C@@]4(C)CO)O[C@H](C(=O)O)[C@@H](O)[C@@H]3O)OC[C@@H](O)[C@@H]2O)[C@H](O)[C@H](O)[C@H]1O",
    "Activity": "0%"
  }
]
